Tested on: MOLT-4
Assay: NCI tumour cell line growth inhibition, 48 h
Activity calls are given as the source filed them. No stated cut-off is given here; in the data, active = GI50 up to about 1.1 µM and inactive = higher.
Permitted responses: YES = active, NO = inactive

[in] Which outcome did this test record for the compound O=C(O)C1OC(n2cc(F)c(=O)[nH]c2=O)CC1O (stereo unspecified) ?
[out] NO

[in] I'd appreciate the recorded outcome for Cc1cccc(C)c1NC(=O)/C=C/c1ccccc1 from this test.
[out] NO

[in] Given Cc1cc(=O)oc2cc(SC(=O)N(C)C)ccc12 , state the outcome it received in this test.
[out] NO

[in] Which result was noted for this compound in the test: Cc1ncc(-c2nnnn2-c2ccccc2)c(C(=O)O)n1
[out] NO

[in] # lookup: test call for CC(=O)O[C@@H]1CN(S(=O)(=O)c2ccc(C)cc2)C[C@@H]1C1CCCCC1
[out] NO

Continue with the next compound.
[in] Hello, I am checking results. What call was entered for Nc1ccc(S(=O)(=O)Nc2ccc(Nc3c4ccccc4nc4ccccc34)cc2)cc1 ?
[out] YES

* * *

Provide the recorded GI50 for the entries that follow.
System: NCI-H23
Assay: NCI tumour cell line growth inhibition, 48 h
Activity calls are given as the source filed them. No stated cut-off is given here; in the data, active = GI50 up to about 1.1 µM and inactive = higher.

Known GI50 results, listed for orientation:
Field GI50 (entry C=C1C(=O)OC2C=C(C)CC3C=C(CCC=C(C)CCC12)C(=O)O3 (centres undefined) ) reads 49.3 µM (inactive)

Field GI50 (entry CN(C)/N=C1/CCC(C(F)(F)F)(C(F)(F)F)O1 ) reads 37.4 µM (inactive)

The compound identified as COc1ccc(-c2oc(/C=N/NC(N)=S)c([N+](=O)[O-])c2-c2ccc(OC)c(OC)c2)cc1OC registered its GI50 at 32 µM (inactive)

Memo: CC(=O)OCC1OC(n2c(=S)n(-c3ccccc3)c(=O)c3cc(Br)ccc32)C(OC(C)=O)C1OC(C)=O (centres undefined) , reported GI50: > 100 µM (inactive)

So, COc1ccc(C(=O)C(CO)Oc2ccccc2OC)cc1OC (centres undefined) ? Its GI50 was > 100 µM (inactive)

Hi team, please reply with GI50 for each item in this list.
1. Cc1ccc(C)c(NC(=O)C(=O)C(C2C(C)CC(=O)C2CC(=O)O)[N+](=O)[O-])c1 (centres undefined)
2. Cc1cn(Cc2cn(CC3OC(n4cc(C)c(=O)[nH]c4=O)CC3O)nn2)c(=O)[nH]c1=O (centres undefined)
3. CCCCC(=O)N/S(=N/C(=O)c1ccccc1)C(Cl)(Cl)Cl (centres undefined)
4. CN(C)c1n/c(=N/Cc2ccncc2)ss1
5. Cc1ccc(S(=O)(=O)N2CCC2c2ccccc2)cc1 (centres undefined)
6. C=C1C(=O)OC2CCCCC3OC3C12 (centres undefined)
7. O=S(=O)(O)c1cc(Nc2ccnc3ccccc23)c2c(S(=O)(=O)O)cc(S(=O)(=O)O)cc2c1
8. COc1cc2ccc(/C(C)=N/OC(C)=O)cc2cc1OC

[out]
1: > 100 µM (inactive); 2: > 100 µM (inactive); 3: > 100 µM (inactive); 4: 17.5 µM (inactive); 5: 76.4 µM (inactive); 6: 14.4 µM (inactive); 7: > 100 µM (inactive); 8: > 100 µM (inactive)

Give me GI50 for each of these compounds, listed below.
1. N#Cc1ccc(N2CCOCC2)cc1
2. O=C(O)c1ccc([N+](=O)[O-])c2cc3cnccc3nc12
3. c1ccc(CN2CCC(CNc3ncnc4ccccc34)C2)cc1 (centres undefined)
4. CO[C@H]1ON=C(c2c(C)cc(C)cc2C)[C@@H]1C1(c2ccccc2)ON=C(c2c(C)cc(C)cc2C)O1 (some centres undefined)
5. CC1(C)OC(=O)N(c2ccccc2)C12C=Cc1cc([N+](=O)[O-])ccc1O2 (centres undefined)

[out]
["80.5 µM (inactive)", "24.6 µM (inactive)", "40.3 µM (inactive)", "> 100 µM (inactive)", "36.2 µM (inactive)"]

Okay, here is my list. What is GI50 for each of these?
1. COc1ccc(N2C(=O)c3cccnc3S2(=O)=O)cc1
2. CC(=O)O[C@H]1CC2C(C3CCC(C(C)CCC(=O)O)[C@]31C)[C@H](OC(C)=O)C[C@@H]1CC3(CC[C@]21C)OOC1(CC[C@]2(C)C4C[C@H](OC(C)=O)[C@]5(C)C(C(C)CCC(=O)O)CCC5C4[C@H](OC(C)=O)C[C@@H]2C1)OO3 (some centres undefined)
3. C1=NN2C(c3ccccc3)=NOC2C2C(c3ccccc3)=NOC12 (centres undefined)

[out]
> 100 µM (inactive)
1.64 µM (inactive)
> 100 µM (inactive)

Provide the reported GI50 of each entry below, same order.
1. CCOC(=O)C(=O)Nc1c(C)cccc1C(C)(C)C
2. CCOC(=O)C(C(=O)OCC)C(NC(=O)Nc1cc(C(F)(F)F)ccc1OC)(C(F)(F)F)C(F)(F)F
3. CCC(C)[C@@H](NCc1ccccc1)[C@H](OCc1ccccc1)[C@@H]1COC(C)(C)O1 (some centres undefined)

[out]
1. > 100 µM (inactive)
2. 35.3 µM (inactive)
3. 18.8 µM (inactive)

* * *

Test system: 786-0
Test: NCI tumour cell line growth inhibition, 48 h
Activity calls are given as the source filed them. No stated cut-off is given here; in the data, active = GI50 up to about 1.1 µM and inactive = higher.
PROPERTY MEASURED: GI50

Below, each entry is followed by its recorded GI50 result.
The compound O=C(CC/C(CC(=O)c1ccc(Cl)cc1)=N/O)Nc1ccc(Cl)c(Cl)c1 showed GI50 equal to > 100 µM (inactive)

Note to self: GI50 recorded for COc1cc(C(=O)C/C(CCC(=O)Nc2ccc(Cl)cc2C)=N/NC(=O)C(N)=O)ccc1O was > 100 µM (inactive)

# GI50 of CC(C)OC(=O)C1(C(C)C)CCc2ccc(C(=O)CCC(=O)O)cc21 (centres undefined) = > 100 µM (inactive)

Value of measured GI50 for the entry CCCCC(=O)OC[n+]1ccc(-c2c(COC(=O)NC(C)C)c(COC(=O)NC(C)C)c3n2CCC3)cc1 : 39.4 µM (inactive)

The compound identified as c1ccc(/N=C(/Nc2ccccc2)N2CCCC2)cc1 registered its GI50 at > 100 µM (inactive)

// each compound listed below needs its GI50
1. [O-][S+]1[C@H](c2ccccc2)c2c(-c3ccccc3)sc(-c3ccccc3)c2[C@@H]1c1ccccc1 (some centres undefined)
2. COc1cc(C2SC(=N)Nc3c2c(C)nn3C(=O)Cc2ccccc2)ccc1O (centres undefined)
3. CC(=O)NN/C=N/C(C#N)=C(\N)C#N
4. CC(=O)NC1C(O)C(O)C(CO)OC1n1nc(SCc2ccccc2)c(=O)[nH]c1=O (centres undefined)

[out]
1. 29.3 µM (inactive)
2. > 100 µM (inactive)
3. > 100 µM (inactive)
4. > 100 µM (inactive)

Batch of 2 compounds: report GI50 for each.
1. CC1(C(=O)O)C[C@](C)(C(=O)OCc2ccccc2)C[C@](C)(C(=O)OCc2ccccc2)C1 (some centres undefined)
2. c1ccc(C[N+]23CN4CN(CN(C4)C2)C3)cc1

[out]
["32 µM (inactive)", "21.1 µM (inactive)"]

Batch request: GI50 for each of the following compounds.
1. CC(=O)n1[nH]c(=O)n(-c2ccc(Cl)cc2)c1=O
2. COc1ccc(OC)c(N(CN2C(=O)CCC2C(=O)O)C(C)=O)c1 (centres undefined)
3. CCOC(=O)/C(=C\Nc1c(C)n(C)n(-c2ccccc2)c1=O)C(=O)c1ccccc1

[out]
1: > 100 µM (inactive); 2: > 100 µM (inactive); 3: > 100 µM (inactive)

* * *

Test system: TK-10
Experiment: NCI tumour cell line growth inhibition, 48 h
Activity calls are given as the source filed them. Cut-off read from the data, not from the text of the source: active = GI50 up to about 1.1 µM and inactive = higher.
Provide the reported GI50 of each item.

// known answers, use as guide
COc1cc(/C=C2\N=C(c3ccccc3)N(c3nc4c(OC)ccc(OC)c4s3)C2=O)cc(OC)c1OC has a reported GI50 of > 100 µM (inactive)

# molecule Cc1nc2ccccc2c(=O)n1NC(=O)c1ccc(N)cc1 ; its GI50 = > 100 µM (inactive)

// below: GI50 requested for another molecule
Note to self: GI50 recorded for O=C(NC(O)(C(F)(F)F)C(F)(F)F)c1ccccc1 was > 100 µM (inactive)

* * *

System: SF-539
Experiment: NCI tumour cell line growth inhibition, 48 h
The source made the active and inactive calls. Cut-off read from the data, not from the text of the source: active = GI50 up to about 1.1 µM and inactive = higher.
Assign a class; possible classes are Yes = active, No = inactive

Recorded results for 3 compounds are shown here.
[in] Give the logged outcome of this assay for the following compound: C[C@H]1S[C@H](c2c(Cl)cccc2Cl)N2Cc3ccccc3N=C12
[out] No

[in] So what was the verdict on CC1CC2CC(=O)CC3(C1)C2CCCN3CCCO (stereo not given) in this test?
[out] No

[in] Fill in: this test's call for COC1/C=C/C(C)C(O)CC(O)/C=C/C(C)C(C(C)C(OC)C(C)CCC(=O)C(C)C(C/C=C/N(C)C=O)OC)OC(=O)/C=C/C=C(\C)CC(OC)CC2=CC(=O)O[C@@H](C(C)C(OC)C1)[C@H]2O (stereo not given in full) is ___
[out] Yes

Continuing:
[in] So what was the verdict on Cc1nnc2n(c1=O)CCN2C in this test?
[out] No

[in] Recorded call for O=S1(=O)[C@H](c2ccccc2)c2c(-c3ccccc3)sc(-c3ccccc3)c2[C@@H]1c1ccccc1 ?
[out] No

[in] Look up the recorded call for CC(C)CCc1n[nH]c(=O)n1/N=C\c1ccccc1 in this test.
[out] No

[in] Which outcome was entered for the compound Cc1nc2sc3ccccc3n2c(=O)c1/N=N/c1ccc(Br)cc1 in this test?
[out] No

[in] Outcome? N=C(N)N/N=C/c1nc2sccn2c1[N+](=O)[O-]
[out] No

[in] Per the records of this test, what outcome belongs to CC(C)(C)OC(=O)NC1CCC[C@H]1O (stereo not given in full) ?
[out] No

[in] Outcome logged for COc1ccc2c3c([nH]c2c1[N+](=O)[O-])C(C)N(Cc1ccccc1)CC3 (stereo not given) in this assay:
[out] No

[in] Called result for CC(C)(NC1=NCCO1)c1ccccc1
[out] No

[in] Hello, I am checking results. What call was entered for O=C(Cn1c2c(c3ccccc31)CCCC2)N1CCCC1 ?
[out] No

[in] Please share the test call associated with N#Cc1ccc(N2CCOCC2)cc1 .
[out] No

Attribution: ChEMBL document CHEMBL1201862
